Values compiled from paper PMC8040948.

# experiment summary: Aqueous solubility, pION method
# condition description: pH 4, aqueous solubility (pH 4.0, μg/mL), Table 5; pH 4.0, mean ± SD, pION method
# solubility per record follows
Note to self: number, then unit, no commentary.

Please report solubility for the following compound: O=C(O)c1cc(-c2ccc(C34CCN(CC3)CC4)cc2)c2ccc(-c3ccc(C(F)(F)F)cc3)cc2c1 [Compound 17]
14.3 µg/mL

Please look at this compound and report its solubility: O=C(O)c1cc(-c2ccc(C34CCN(CC3)CC4)cc2)cc(-n2cc(-c3ccc(C(F)(F)F)cc3)nn2)c1 [Compound 18]
14.4 µg/mL

----------
# experiment summary: Observed solubility in water, DMSO or aqueous DMSO
value type: solubility

Quickly give me recorded solubility for "O=C(O)c1cc(-c2ccc(C34CCN(CC3)CC4)cc2)c2ccc(-c3ccc(C(F)(F)F)cc3)cc2c1"
≥ 1000 µg/mL
